Assay system: GABA B receptor (Rattus norvegicus, UniProt O88871+Q9Z0U4)
Sequence (Q9Z0U4 whole entry): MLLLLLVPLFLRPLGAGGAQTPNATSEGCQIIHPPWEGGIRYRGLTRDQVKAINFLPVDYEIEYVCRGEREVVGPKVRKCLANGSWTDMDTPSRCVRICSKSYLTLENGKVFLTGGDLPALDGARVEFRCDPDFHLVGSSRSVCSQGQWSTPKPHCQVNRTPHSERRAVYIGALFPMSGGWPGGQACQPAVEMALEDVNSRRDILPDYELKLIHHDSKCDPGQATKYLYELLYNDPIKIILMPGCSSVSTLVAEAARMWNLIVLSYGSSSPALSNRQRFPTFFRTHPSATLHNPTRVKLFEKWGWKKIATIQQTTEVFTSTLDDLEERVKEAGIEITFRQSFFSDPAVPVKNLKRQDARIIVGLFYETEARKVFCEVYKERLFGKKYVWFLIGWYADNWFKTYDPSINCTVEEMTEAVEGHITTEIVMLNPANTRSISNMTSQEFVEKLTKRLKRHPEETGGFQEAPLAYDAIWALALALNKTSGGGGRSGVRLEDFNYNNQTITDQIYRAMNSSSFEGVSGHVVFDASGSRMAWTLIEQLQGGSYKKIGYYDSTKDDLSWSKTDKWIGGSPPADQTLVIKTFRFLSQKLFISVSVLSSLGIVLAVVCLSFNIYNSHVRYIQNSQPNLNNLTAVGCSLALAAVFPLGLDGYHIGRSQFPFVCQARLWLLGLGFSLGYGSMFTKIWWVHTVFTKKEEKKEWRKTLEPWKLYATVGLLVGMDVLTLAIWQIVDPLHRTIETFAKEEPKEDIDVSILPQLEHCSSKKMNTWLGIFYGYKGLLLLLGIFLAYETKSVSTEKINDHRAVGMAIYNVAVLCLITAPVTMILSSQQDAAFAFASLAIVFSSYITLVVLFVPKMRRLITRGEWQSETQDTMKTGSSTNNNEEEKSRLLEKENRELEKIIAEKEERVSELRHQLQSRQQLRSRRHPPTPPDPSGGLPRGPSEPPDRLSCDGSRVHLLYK
Sequence (O88871 whole entry): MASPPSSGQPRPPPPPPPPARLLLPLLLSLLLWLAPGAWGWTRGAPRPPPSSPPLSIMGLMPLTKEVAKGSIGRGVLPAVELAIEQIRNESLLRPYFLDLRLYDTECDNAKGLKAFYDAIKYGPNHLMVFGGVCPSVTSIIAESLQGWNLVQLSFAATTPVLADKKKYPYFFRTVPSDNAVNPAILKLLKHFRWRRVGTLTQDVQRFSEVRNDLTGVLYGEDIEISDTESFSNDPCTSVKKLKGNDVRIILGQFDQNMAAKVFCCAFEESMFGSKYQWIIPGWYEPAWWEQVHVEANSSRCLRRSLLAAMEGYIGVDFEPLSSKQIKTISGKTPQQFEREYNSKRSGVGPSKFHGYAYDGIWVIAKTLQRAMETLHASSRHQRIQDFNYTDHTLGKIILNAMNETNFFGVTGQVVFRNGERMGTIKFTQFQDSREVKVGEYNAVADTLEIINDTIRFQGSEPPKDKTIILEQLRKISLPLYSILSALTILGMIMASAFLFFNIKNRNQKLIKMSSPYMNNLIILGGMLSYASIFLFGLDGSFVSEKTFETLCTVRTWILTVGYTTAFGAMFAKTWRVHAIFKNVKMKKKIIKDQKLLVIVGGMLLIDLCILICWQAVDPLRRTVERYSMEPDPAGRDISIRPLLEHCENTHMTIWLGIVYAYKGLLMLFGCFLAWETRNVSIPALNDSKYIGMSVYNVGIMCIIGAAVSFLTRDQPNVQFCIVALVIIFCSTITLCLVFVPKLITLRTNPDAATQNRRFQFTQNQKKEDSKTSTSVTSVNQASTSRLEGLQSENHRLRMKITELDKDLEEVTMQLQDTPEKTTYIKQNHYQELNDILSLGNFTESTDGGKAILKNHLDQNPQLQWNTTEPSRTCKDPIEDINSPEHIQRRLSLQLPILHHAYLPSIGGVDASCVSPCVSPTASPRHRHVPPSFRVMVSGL
Experiment notes: Inhibition of rat hippocampal Gamma-aminobutyric acid type B receptor (weak agonist)
Experimental readout: EC50 (µM)
One number for each entry, in µM.

Measured EC50 (GABA B receptor (Rattus norvegicus, UniProt O88871+Q9Z0U4)), entry `CP(=O)(O)C1=CCNCC1` : 500
